These entries and their values trace back to ChEMBL document CHEMBL1201862.

Test system: CAKI-1
measurement_description: NCI tumour cell line growth inhibition, 48 h
Active and inactive are the calls of the source. Cut-off read from the data, not from the text of the source: active = GI50 up to about 1.1 µM and inactive = higher.
Outcome (select one): active, inactive

Recorded results for 2 compounds are shown here.
| compound | assigned_category |
| --- | --- |
| CCOC(=O)/C(C(=O)c1ccccc1)=C1\N[C@H](C(=O)OCC)CS1 | inactive |
| CCCCCCCCCCCCCCCCCCNc1ccn(C2OC(COP(=O)(O)OCC3CCC(n4cnc5c(=O)[nH]cnc54)O3)C(O)C2O)c(=O)n1 (stereo unspecified) | inactive |

Exam item: Fill in: this test's call for "CCO/C=N/NC(=O)CSc1nc2ccc(I)cc2c(=O)n1Cc1ccccc1" is ___
Marked response: inactive

Exam item: Fill in: this test's call for CC1=CC(=O)NP(=O)(Oc2ccc(Cl)cc2)N1 (stereo unspecified) is ___
Marked response: inactive

Exam item: Fill in: this test's call for "O=S(=O)(c1ccc(/N=N/O)nc1)c1ccc2ccccc2c1" is ___
Marked response: inactive

Exam item: Fill in: this test's call for COC1(OC)N=C(N)C2(C#N)C3(C(=O)N(C(C)C)N=C3C)C12C#N (stereo unspecified) is ___
Marked response: inactive

Exam item: Fill in: this test's call for NCCNCC(O)CO (stereo unspecified) is ___
Marked response: inactive

Exam item: Fill in: this test's call for "CS(=O)(=O)C(=Cc1ccccc1Cl)S(C)(=O)=O" is ___
Marked response: inactive

###

System: T47D
measurement_description: NCI tumour cell line growth inhibition, 48 h
The source made the active and inactive calls. Rule as the data show it: active = GI50 up to about 1.1 µM and inactive = higher.
Outcome (select one): y for active, n for inactive

Recorded results for 5 molecules are shown here.
| molecule | assigned_category |
| --- | --- |
| COC(=O)c1ccc2c(c1)CC1(C2)Cc2cc3c(c(C(=O)OC)c2C1)CCCC3 (stereo unspecified) | n |
| S=CN1CCCCC1 | n |
| O=C1CC(c2cccc(F)c2)Nc2cc3c(cc21)OCO3 (stereo unspecified) | n |
| CC(C)NC(=O)OCc1c(COC(=O)NC(C)C)c(-c2ccc[n+](COC(=O)Cc3ccccc3)c2)n2c1CCC2 | n |
| CC1C(c2ccc(F)cc2)c2cc3c(cc2OC1N1CCCC1)OCO3 (stereo unspecified) | n |

Moving on to the next molecule.
Exam item: Fill in: this test's call for "C=CCc1c(Cl)nc(Cl)nc1Cl" is ___
Marked response: y

###

System: HL-60
measurement_description: NCI tumour cell line growth inhibition, 48 h
The source made the active and inactive calls. Rule as the data show it: active = GI50 up to about 1.1 µM and inactive = higher.
measured_property: GI50

Look over these answered cases.
| compound | observed |
| --- | --- |
| Cc1cccc(/N=N/C(=N\NC(=O)c2cc(Cl)ccc2O)c2ccc(N(CCC#N)CCC#N)cc2C)c1 | 14.3 µM (inactive) |
| OCC1OC(O[C@H]2CN3[C@H](O)[C@@H](O)[C@H](O)[C@H]3C2O)C(O)C(O)C1O (some centres undefined) | > 100 µM (inactive) |
| O=C1CC[C@H]2CNC(=O)C[C@H]2C1 | > 100 µM (inactive) |
| O=C1CC(Cl)c2c1csc2Br (centres undefined) | 21.4 µM (inactive) |
| CSc1c(C#N)c(=O)[nH]c2[nH]nc(C)c12 | > 100 µM (inactive) |
| COc1ccc(NC(=O)C(=O)C(C(=O)c2ccccc2)C2OC(=O)c3ccccc32)c([N+](=O)[O-])c1 (centres undefined) | > 100 µM (inactive) |
| c1ccc(SC2(Sc3ccccc3)CCCC2)cc1 | > 100 µM (inactive) |
| COC1/C=C\OC2(C)Oc3c(C)c(O)c4c(O)c(c(/C=N\OCCCc5ccccc5)c(O)c4c3C2=O)NC(=O)/C(C)=C\C=C/C(C)C(O)C(C)C(O)C(C)C(OC(C)=O)C1C (centres undefined) | 3.01 µM (inactive) |

Exam item: Report measured GI50; entry is "O=C(NC12CC3CC(CC(C3)C1)C2)n1cnc2cncnc21"
Marked response: 28.7 µM (inactive)
